The following compounds are listed with their measured IC50 values.
System: CaR-1;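 note: growth inhibition of human CaR-1 cancer cells, read out with a cell viability assay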
PROCEDURE DETAILS: cells
Assay type: functional, cell-based
RECORDED CONDITIONS: Homo sapiens
Description: SANGER: Inhibition of human CaR-1 cell growth in a cell viability assay.

The value of IC50 measured for the compound CN(C)CCOc1ccc(-c2nc(-c3ccncc3)c(-c3ccc4c(c3)CC/C4=N\O)[nH]2)cc1 turned out to be > 5 µM

The value of IC50 measured for the compound COC(=O)[C@H](CCSC)NC(=O)c1ccc(NC[C@@H](N)CS)cc1-c1ccccc1 turned out to be > 1.02 µM

The value of IC50 measured for the compound OC[C@H](Cc1ccccc1)Nc1nc(Oc2ccc3c(c2)CCC3)nc2c1ncn2Cc1ccc(-c2ccccc2)cc1 turned out to be > 10.2 µM

The value of IC50 measured for the compound CCCCCCCCCCCC1=C(O)C(=O)C=C(O)C1=O turned out to be > 32 µM

----------
The following compounds are listed with their measured pIC50 values.
Test system: NCI-H1299;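 note: growth inhibition of human NCI-H1299 cells, read out by a cell viability assay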
PROCEDURE DETAILS: cells
Format: functional, cell-based
RECORDED CONDITIONS: Homo sapiens
Description: SANGER: Inhibition of human NCI-H1299 cell growth in a cell viability assay.
pIC50: −log10 of the molar value.

SMILES TEXT | RESULT
COc1cc(N2CCC(N3CCN(C)CC3)CC2)ccc1Nc1ncc(Cl)c(Nc2ccccc2S(=O)(=O)C(C)C)n1 | < 5.70

The value of pIC50 measured for the compound Cc1ccc(C(=O)Nc2ccc(CN3CCN(C)CC3)c(C(F)(F)F)c2)cc1C#Cc1cnc2cccnn12 turned out to be < 6.29

The value of pIC50 measured for the compound CC1(C)CCC(c2ccc(Cl)cc2)=C(CN2CCN(c3ccc(C(=O)NS(=O)(=O)c4ccc(N[C@H](CCN5CCOCC5)CSc5ccccc5)c(S(=O)(=O)C(F)(F)F)c4)cc3)CC2)C1 turned out to be < 5.70

----------
The following compounds are listed with their measured IC50 values.
System: NCI-H2009;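 note: cell viability assay measuring inhibition of NCI-H2009 cell growth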
PROCEDURE DETAILS: cells
Format: functional, cell-based
RECORDED CONDITIONS: Homo sapiens
Description: SANGER: Inhibition of human NCI-H2009 cell growth in a cell viability assay.

SMILES TEXT | IC50
NC(=O)Nc1cc(-c2cccc(F)c2)sc1C(=O)N[C@H]1CCCNC1 | > 2 µM
Cc1ccc(-n2nc(C(C)(C)C)cc2NC(=O)Nc2ccc(OCCN3CCOCC3)c3ccccc23)cc1 | > 10 µM
CC1=C(/C=C/C(C)=C/C=C/C(C)=C/C(=O)O)C(C)(C)CCC1 | > 10 µM
COc1ccc(-c2cc3nccn3c(Nc3ncccc3C(N)=O)n2)cc1OC | > 8 µM
NC(=O)c1ccc(N(C(N)=O)c2c(F)cccc2F)nc1-c1ccc(F)cc1F | > 2 µM
COC(=O)[C@H](CCSC)NC(=O)c1ccc(NC[C@@H](N)CS)cc1-c1ccccc1 | > 1.02 µM

Would you kindly look at the next entry?
Considering OC[C@H](Cc1ccccc1)Nc1nc(Oc2ccc3c(c2)CCC3)nc2c1ncn2Cc1ccc(-c2ccccc2)cc1 , its IC50 with NCI-H2009 was recorded as > 10.2 µM

----------
System: SAOS-2;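 note: growth inhibition of human Saos-2 cells determined by a cell viability assay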
PROCEDURE DETAILS: cells
Format: functional, cell-based
RECORDED CONDITIONS: Homo sapiens
Description: SANGER: Inhibition of human Saos-2 cell growth in a cell viability assay.
pIC50: −log10 of the molar value.
PROPERTY MEASURED: pIC50

The value of pIC50 measured for the molecule OC[C@H](Cc1ccccc1)Nc1nc(Oc2ccc3c(c2)CCC3)nc2c1ncn2Cc1ccc(-c2ccccc2)cc1 turned out to be < 4.99

The value of pIC50 measured for the molecule CCCCCCCCCCCC1=C(O)C(=O)C=C(O)C1=O [EMBELIN] turned out to be 5.40

The value of pIC50 measured for the molecule Cc1ccc(C(=O)Nc2ccc(CN3CCN(C)CC3)c(C(F)(F)F)c2)cc1C#Cc1cnc2cccnn12 [PONATINIB] turned out to be < 6.29

The value of pIC50 measured for the molecule Cc1ccc(-n2nc(C(C)(C)C)cc2NC(=O)Nc2ccc(OCCN3CCOCC3)c3ccccc23)cc1 [DORAMAPIMOD] turned out to be < 5.00

The value of pIC50 measured for the molecule O=C1NC(=O)c2c1c(-c1ccccc1Cl)cc1[nH]c3ccc(O)cc3c21 turned out to be < 5.70
